I'd be grateful if you could share measured pKi for these entries.
Molecular target: μ-opioid receptor (Rattus norvegicus)
Construct: the forebrains are homogenized in Tris buffer in a Teflon®-glass homogenizer; from tissue; host or cells: forebrain of male Wistar rats (particulate membrane preparation)
Sequence (P33535 whole entry): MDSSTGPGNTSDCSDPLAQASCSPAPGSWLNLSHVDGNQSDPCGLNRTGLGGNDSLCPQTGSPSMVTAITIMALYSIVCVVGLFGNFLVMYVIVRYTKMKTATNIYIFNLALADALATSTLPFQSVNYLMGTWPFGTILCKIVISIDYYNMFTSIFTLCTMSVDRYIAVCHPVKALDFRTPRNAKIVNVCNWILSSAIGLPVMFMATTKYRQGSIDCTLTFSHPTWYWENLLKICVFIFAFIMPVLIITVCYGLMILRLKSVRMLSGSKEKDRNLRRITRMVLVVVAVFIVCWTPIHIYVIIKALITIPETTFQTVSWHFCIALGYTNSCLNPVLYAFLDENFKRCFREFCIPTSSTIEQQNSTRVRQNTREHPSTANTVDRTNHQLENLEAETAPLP
Assay: Rat brain μ-opioid receptor binding assay ([3H]DAMGO)
Settings: MOR binding Ki
Just so you know, pKi here is -log10 of the concentration in molar units; reply with that number alone.

Recorded pKi for CCNC(=O)c1ccc(C(=C2CC3CCC(C2)N3Cc2ccccn2)c2cnc3ccccc3c2)cc1 , please?
6.85

Find the recorded pKi belonging to CCNC(=O)c1ccc(C=C2CC3CCC(C2)N3CCC(C#N)(c2ccccc2)c2ccccc2)cc1 and report it.
7.27

So what does the record say about pKi for CCNC(=O)c1ccc(C(=C2CC3CCC(C2)N3Cc2ccoc2)c2ccc(CCC(=O)O)cc2)cc1 ?
8.53

Return reported pKi; argument: CCNC(=O)c1ccc(C(=C2CC3CCC(C2)N3Cc2sccc2C)c2ccc3c(c2)OCO3)cc1
6.89

Reported pKi for CCNC(=O)c1ccc(C(=C2CC3CCC(C2)N3CC=C(C)C)c2cccc(CN)c2)cc1 : what is it?
5.26

I'd like to know its pKi. The compound in question is CCNC(=O)c1ccc(C=C2CC3CCC(C2)N3Cc2c[nH]cn2)cc1
5.26

Look up pKi for this compound: CCNC(=O)c1ccc(/C(=C2\C[C@H]3CC[C@@H](C2)N3Cc2ccccn2)c2ccc(C(=O)N(C)C)cc2)cc1
7.44

Reported pKi for CCNC(=O)c1ccc(C(=C2CC3CCC(C2)N3CC=C(C)C)c2ccc([N+](=O)[O-])cc2)cc1 : what is it?
8.52

Reported pKi for CCNC(=O)c1ccc(C(=C2CC3CCC(C2)N3CCc2ccccc2)c2ccc([N+](=O)[O-])cc2)cc1 : what is it?
8.12

So what's the measured pKi for this one? CCNC(=O)c1ccc(C(=C2CC3CCC(C2)N3Cc2ccsc2)c2cccc(-c3nnn[nH]3)c2)cc1 [Cpd 169]
7.85

Name the recorded pKi for CCNC(=O)c1ccc(C(=C2CC3CCC(C2)N3Cc2ccc3ccccc3n2)c2cccc(C(C)=O)c2)cc1 .
7.44

What does the data say about its pKi? Entry: CCNC(=O)c1ccc(C(=C2C[C@H]3CC[C@@H](C2)N3C(=O)Cc2ccccc2)c2cccnc2)cc1 [Cpd 218]
8.45

Give the measured pKi of CCNC(=O)c1ccc(C(=C2CC3CCC(C2)N3Cc2ccccn2)c2cccc3cccnc23)cc1 .
7.39

Which pKi value is on record for CCNC(=O)c1ccc(C(=C2CC3CCC(C2)N3Cc2ccc3c(c2)OCO3)c2cccc3cccnc23)cc1 ?
6.88

Would you mind telling me what pKi value was observed for CCNC(=O)c1ccc(C(C#N)=C2CC3CCC(C2)N3Cc2ccoc2)cc1 [Cpd 143] ?
8.99

Consider the compound CCNC(=O)c1ccc(C=C2CC3CCC(C2)N3Cc2[nH]cnc2C)cc1 and give its measured pKi.
5.83
